Percent Effect overview
# tested-system: Protein translocase subunit SecA (Escherichia coli (strain K12))
# assay-text: Assay to Identify E. coli SecA ATPase Inhibitors
# Type: functional
# Parameters: scale not given: direction of the effect not stated beside the values
# condition-parameters: 30 µM
Potency and affinity values are given separately.
property: Percent Effect

> print(dat)
                                    compound                             tested.system  measured.result
 1  CN(C)Cc1ccnc(C2CCCN2Cc2cc[nH]n2)n1 (stereo unspecified)  Protein translocase subunit SecA (Escherichia coli (strain K12))            -6.5%
 2  CCCNC(=O)C(C)NC(=O)CCc1ccccc1Br (stereo unspecified)  Protein translocase subunit SecA (Escherichia coli (strain K12))            0.82%
 3     Cc1nc(CN2CCc3nn(C(C)C)c(=O)cc3C2)oc1C  Protein translocase subunit SecA (Escherichia coli (strain K12))           -3.86%
 4  NCCn1nc(C2CCN(C(=O)CC3CCCCC3)C2)c2nccnc21 (stereo unspecified)  Protein translocase subunit SecA (Escherichia coli (strain K12))           -2.44%
 5           Cc1cnc(CNc2c(F)cccc2-n2cccn2)o1  Protein translocase subunit SecA (Escherichia coli (strain K12))            3.66%
 6  Cc1cccc(N2CC[C@@H]3CN(C(=O)c4ccco4)CCO[C@@H]3C2)n1  Protein translocase subunit SecA (Escherichia coli (strain K12))           -3.29%
 7   O=C(NS(=O)(=O)c1ccccc1Cl)c1cccc2c1OCCO2  Protein translocase subunit SecA (Escherichia coli (strain K12))           -5.38%
 8  Cc1cn2c(n1)CCC(NC(=O)c1cc(C(C)C)no1)C2 (stereo unspecified)  Protein translocase subunit SecA (Escherichia coli (strain K12))           -4.48%
 9  Cc1nn(C)cc1C(=O)N1C[C@H]2CC[C@@H]1CN(S(=O)(=O)N(C)C)C2  Protein translocase subunit SecA (Escherichia coli (strain K12))          -0.765%
10    CN(C)S(=O)(=O)N1CCC(Oc2ccc(C#N)cn2)CC1  Protein translocase subunit SecA (Escherichia coli (strain K12))           -4.11%
11  CC(=O)N1CCCC1c1cccc(Cc2ccccc2F)n1 (stereo unspecified)  Protein translocase subunit SecA (Escherichia coli (strain K12))           -3.38%

###

# tested-system: Tyrosyl-tRNA synthetase, putative (Trypanosoma cruzi (strain CL Brener)) (UniProt Q4DSP6)
# Sequence (Q4DSP6 as listed by the source): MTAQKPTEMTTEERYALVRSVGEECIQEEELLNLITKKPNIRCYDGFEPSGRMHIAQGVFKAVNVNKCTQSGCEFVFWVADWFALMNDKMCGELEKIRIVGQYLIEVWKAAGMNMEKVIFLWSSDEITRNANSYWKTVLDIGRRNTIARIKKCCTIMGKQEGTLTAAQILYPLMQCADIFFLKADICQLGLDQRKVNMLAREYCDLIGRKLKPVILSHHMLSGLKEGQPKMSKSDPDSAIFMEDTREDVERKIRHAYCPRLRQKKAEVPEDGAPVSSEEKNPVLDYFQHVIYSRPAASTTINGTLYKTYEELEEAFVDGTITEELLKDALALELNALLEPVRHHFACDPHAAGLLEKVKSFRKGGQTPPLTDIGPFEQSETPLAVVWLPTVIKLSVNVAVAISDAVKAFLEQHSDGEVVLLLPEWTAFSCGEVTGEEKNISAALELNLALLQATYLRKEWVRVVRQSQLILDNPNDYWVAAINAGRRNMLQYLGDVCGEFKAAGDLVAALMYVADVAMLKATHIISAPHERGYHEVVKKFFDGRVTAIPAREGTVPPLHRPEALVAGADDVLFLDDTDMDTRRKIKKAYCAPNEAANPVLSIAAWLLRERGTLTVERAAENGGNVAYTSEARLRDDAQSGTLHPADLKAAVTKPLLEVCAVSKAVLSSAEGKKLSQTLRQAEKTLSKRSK
# assay-text: Trypanosoma cruzi tyrosyl tRNA synthetase (TcYRS) SOP
# Type: functional
# Design: scale not given: direction of the effect not stated beside the values
# condition-parameters: 30 µM
Each entry below carries its recorded Percent Effect.
property: Percent Effect (%)

> print(dat)
                                    compound        property  unit  measured.result
 1  Cc1cn2nc(N3CCCC3CC(C)(C)C)sc2n1 (stereo unspecified)  Percent Effect     %             7.59
 2  CN(CCc1ccccc1)Cc1cc(C(=O)N2CCCC2(C)C)no1  Percent Effect     %             11.1
 3        CN(C)CCCNC(=O)c1cc(Br)c2c(c1)OCCO2  Percent Effect     %             18.5
 4  Cc1noc(C)c1CN1CC[C@H]2OCC[C@@H](C(=O)N3CCCO3)[C@@H]2C1  Percent Effect     %              2.5
 5  Cc1cc(C(=O)N2C[C@@H]3[C@@H](C2)OCC(=O)N3CC2CC2)no1  Percent Effect     %            -90.1
 6  Cn1ccnc1CN1CCC2(CC(=O)N(c3cccc(F)c3)C2)C1 (stereo unspecified)  Percent Effect     %             14.1
 7  Cc1noc(C)c1CN1CC[C@@H](OCC2CC2)[C@@H](Cc2ccccc2)C1  Percent Effect     %             14.1
 8  CCC1c2cccn2CCN1C(=O)c1ccc2nonc2c1 (stereo unspecified)  Percent Effect     %            -2.56
 9  CCN(c1ccc(C(=O)NCCCN2CCCC2)cc1)S(=O)(=O)CC  Percent Effect     %             7.79
10      COC1CCN(C(=O)CCc2c(C)nc3ccnn3c2C)CC1  Percent Effect     %             6.17
11  CC(O)CN1CCN(Cc2csc(-c3ncccn3)n2)CC1 (stereo unspecified)  Percent Effect     %             15.6
